Ref: ChEMBL document CHEMBL1122167

The molecules below have reported IC50 for Adrenergic receptor alpha.
Give the quantity in µM, number only.

Observe how each entry below is paired with its result.
CC(C)NCC(O)c1ccc(O)c(O)c1F (centres undefined)
59
CC(C)NCC(O)c1cc(O)c(O)cc1F (centres undefined)
80

Record CC(C)NCC(O)c1cc(O)c(O)c(F)c1 (centres undefined) ; system Adrenergic receptor alpha; IC50 = 55
